assay: Plasma and brain concentrations after dosing; format: in vivo, rat; conditions: rat, plasma, oral, 3 mg/kg, Rat MK-801 Set Shift (0.3-3 mg/kg study); 3 mg/kg po; 150 min; read-out: Plasma Mean ± SD
measuredMetric: concentration at 150 min (nM)
Give bare numbers, in nM.

Task item: State, in one line, measured concentration at 150 min of "c1cn(-c2cc(NC3=NC[C@@]4(CN5CCC4CC5)O3)ncn2)cn1"
Reply: 410

----------
biological target: human 5-HT3A receptors (Homo sapiens); assay: biochemical; settings: human 5-HT3A Ki, displacement of [3H]-granisetron
Sequence (P46098 24-478): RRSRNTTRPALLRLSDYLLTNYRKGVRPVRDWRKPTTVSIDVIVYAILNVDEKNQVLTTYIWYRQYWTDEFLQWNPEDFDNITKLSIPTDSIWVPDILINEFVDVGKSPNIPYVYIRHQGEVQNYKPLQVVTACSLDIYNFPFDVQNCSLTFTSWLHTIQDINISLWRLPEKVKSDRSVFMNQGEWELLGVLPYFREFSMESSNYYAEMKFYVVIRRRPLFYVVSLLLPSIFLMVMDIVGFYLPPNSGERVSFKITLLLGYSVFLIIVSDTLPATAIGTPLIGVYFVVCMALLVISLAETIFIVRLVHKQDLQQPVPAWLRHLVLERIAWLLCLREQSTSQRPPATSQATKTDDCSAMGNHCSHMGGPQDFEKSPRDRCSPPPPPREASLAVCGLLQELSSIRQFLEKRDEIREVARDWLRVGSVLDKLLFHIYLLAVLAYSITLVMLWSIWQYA
pKi: −log10 of the molar value.
measuredMetric: pKi

Task item: Hello, please tell me recorded pKi for this one: O=C(N[C@@H]1C2CCN(CC2)[C@H]1Cc1cccnc1)c1cc2ccccc2o1 [TC-5619]
Reply: < 5.00

----------
tested on: L-type calcium channel; test: Selectivity panel, functional; format: cell-based; settings: Human
measuredMetric: IC50

Task item: Name the recorded IC50 of the compound listed here: "c1cn(-c2cc(NC3=NC[C@@]4(CN5CCC4CC5)O3)ncn2)cn1"
Reply: > 25 µM

----------
Assay: Plasma and brain concentrations after dosing
Type: in vivo, mouse
Conditions: mouse, plasma, sc, 1 mg/kg, Mouse MK-801 Y Maze; 1 mg/kg sc; 60 min; read-out: Plasma Mean ± SD
Protocol: Occupancy determinations were made either on completion of behavioral testing or in satellite groups of animals dosed in parallel with behavioral testing. […] Bound radioactivity was measured using a Wallac Microbeta liquid scintillation counter. Specific binding was calculated by subtracting the value of the non-specific binding from that of the total binding in each sample. […]
measuredMetric: concentration at 60 min (nM)
Numbers only, in nM.

Task item: Please list concentration at 60 min recorded for the compound "c1cn(-c2cc(NC3=NC[C@@]4(CN5CCC4CC5)O3)ncn2)cn1"
Reply: 254

----------
experiment: Plasma and brain concentrations after dosing; format: in vivo, mouse; conditions: mouse, brain/plasma, subcutaneous, 10 mg/kg, Mouse NOR (1-10 mg/kg study); 10 mg/kg sc; 30 min
measuredMetric: Kp at 30 min
Numbers only.

Task item: Tell us which Kp at 30 min value is on record for "c1cn(-c2cc(NC3=NC[C@@]4(CN5CCC4CC5)O3)ncn2)cn1"
Reply: 0.2

----------
Assay: Plasma and brain concentrations after dosing
Type: in vivo, mouse
Conditions: mouse, plasma, sc, 0.1 mg/kg, Mouse MK-801 Y Maze; 0.10 mg/kg sc; 60 min; read-out: Plasma Mean ± SD
Description: Occupancy determinations were made either on completion of behavioral testing or in satellite groups of animals dosed in parallel with behavioral testing. […] Bound radioactivity was measured using a Wallac Microbeta liquid scintillation counter. Specific binding was calculated by subtracting the value of the non-specific binding from that of the total binding in each sample. […]
measuredMetric: concentration at 60 min (nM)
Numbers only, in nM.

Task item: Specify concentration at 60 min for c1cn(-c2cc(NC3=NC[C@@]4(CN5CCC4CC5)O3)ncn2)cn1 [BMS-933043] and stop.
Reply: 21

----------
biological target: HEK293/human α7 nAChR cells (Homo sapiens); construct: expressed in transfected cells; experiment: Whole cell voltage clamp electrophysiology; type: cell-based
Sequence (P36544 23-502): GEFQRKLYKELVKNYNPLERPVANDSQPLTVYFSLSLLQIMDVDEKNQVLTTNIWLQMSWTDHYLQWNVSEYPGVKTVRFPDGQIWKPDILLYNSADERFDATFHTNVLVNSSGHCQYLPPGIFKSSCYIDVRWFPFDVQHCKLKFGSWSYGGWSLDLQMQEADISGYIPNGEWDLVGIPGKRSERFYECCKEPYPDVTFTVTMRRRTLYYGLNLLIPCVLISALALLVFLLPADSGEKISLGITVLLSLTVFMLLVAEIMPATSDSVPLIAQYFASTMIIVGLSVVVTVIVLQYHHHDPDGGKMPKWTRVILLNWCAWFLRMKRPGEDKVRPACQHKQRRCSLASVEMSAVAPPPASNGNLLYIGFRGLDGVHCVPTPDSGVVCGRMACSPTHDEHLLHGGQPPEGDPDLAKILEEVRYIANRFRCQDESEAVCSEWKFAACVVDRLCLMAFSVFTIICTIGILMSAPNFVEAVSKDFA
measuredMetric: pEC50
Answers are plain numbers, as −log10 of the molar value.

Task item: Please report pEC50 for the following compound: "c1cn(-c2cc(NC3=NC[C@@]4(CN5CCC4CC5)O3)ncn2)cn1"
Reply: 6.54

----------
target: GABA-A α1β2γ2 (Homo sapiens, UniProt P14867+P18507+P47870); assay: Selectivity panel, functional
Sequence (P14867 28-456): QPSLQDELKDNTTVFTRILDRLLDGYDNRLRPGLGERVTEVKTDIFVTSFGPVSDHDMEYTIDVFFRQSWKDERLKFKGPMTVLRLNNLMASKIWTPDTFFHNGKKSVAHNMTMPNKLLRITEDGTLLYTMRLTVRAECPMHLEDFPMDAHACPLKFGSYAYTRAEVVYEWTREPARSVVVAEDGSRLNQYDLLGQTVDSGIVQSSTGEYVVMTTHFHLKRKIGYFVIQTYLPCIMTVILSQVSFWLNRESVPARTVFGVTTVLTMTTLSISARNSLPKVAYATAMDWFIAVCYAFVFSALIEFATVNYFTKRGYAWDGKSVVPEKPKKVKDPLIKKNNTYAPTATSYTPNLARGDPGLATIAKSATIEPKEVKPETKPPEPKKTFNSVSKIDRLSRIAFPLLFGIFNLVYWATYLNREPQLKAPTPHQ
Sequence (P47870 25-512 limits assumed): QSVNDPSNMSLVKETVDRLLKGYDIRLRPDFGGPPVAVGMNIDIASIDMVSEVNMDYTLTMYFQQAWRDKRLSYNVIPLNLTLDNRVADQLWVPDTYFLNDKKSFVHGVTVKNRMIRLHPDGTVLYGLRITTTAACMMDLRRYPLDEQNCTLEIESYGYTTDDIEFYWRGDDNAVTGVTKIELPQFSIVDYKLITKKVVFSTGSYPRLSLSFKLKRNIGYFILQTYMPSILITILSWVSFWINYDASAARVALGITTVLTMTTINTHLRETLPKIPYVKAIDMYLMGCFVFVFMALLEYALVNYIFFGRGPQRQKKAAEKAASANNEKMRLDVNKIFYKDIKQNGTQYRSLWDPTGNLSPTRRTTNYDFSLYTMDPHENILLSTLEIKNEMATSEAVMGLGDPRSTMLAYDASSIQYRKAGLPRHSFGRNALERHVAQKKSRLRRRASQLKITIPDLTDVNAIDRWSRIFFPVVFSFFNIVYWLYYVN
Sequence (P18507 40-475): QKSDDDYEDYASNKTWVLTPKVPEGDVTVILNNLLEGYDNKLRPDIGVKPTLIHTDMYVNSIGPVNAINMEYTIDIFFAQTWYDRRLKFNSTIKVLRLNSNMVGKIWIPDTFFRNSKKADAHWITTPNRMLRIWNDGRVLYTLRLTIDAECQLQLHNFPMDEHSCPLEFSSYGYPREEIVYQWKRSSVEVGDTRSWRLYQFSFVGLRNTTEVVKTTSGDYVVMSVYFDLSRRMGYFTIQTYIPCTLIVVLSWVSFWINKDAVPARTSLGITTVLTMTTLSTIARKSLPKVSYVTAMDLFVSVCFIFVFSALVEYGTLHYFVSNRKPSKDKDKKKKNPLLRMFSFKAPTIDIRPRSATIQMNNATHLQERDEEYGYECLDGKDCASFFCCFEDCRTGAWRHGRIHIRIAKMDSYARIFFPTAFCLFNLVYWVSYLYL
measuredMetric: IC50

Task item: Consider the molecule c1cn(-c2cc(NC3=NC[C@@]4(CN5CCC4CC5)O3)ncn2)cn1 [BMS-933043] . State its measured IC50.
Reply: > 30 µM

----------
assay: Plasma and brain concentrations after dosing; assay type: in vivo, mouse; details: mouse, plasma, subcutaneous, 10 mg/kg, Mouse NOR (1-10 mg/kg study); 10 mg/kg sc; 30 min; read-out: Plasma Mean ± SD
measuredMetric: concentration at 30 min (µM)
Numbers only, in µM.

Task item: Determine its reported concentration at 30 min: "c1cn(-c2cc(NC3=NC[C@@]4(CN5CCC4CC5)O3)ncn2)cn1"
Reply: 5.55

----------
test: Plasma and brain concentrations after dosing; type: in vivo, rat; conditions: rat, brain, sc, 0.56 mg/kg, Rat N40 Gating; 0.56 mg/kg sc; 30 min; read-out: Brain Mean ± SD
measuredMetric: concentration at 30 min (nM)
One number for each entry, in nM.

Task item: Supply recorded concentration at 30 min for c1cn(-c2cc(NC3=NC[C@@]4(CN5CCC4CC5)O3)ncn2)cn1 [BMS-933043] here.
Reply: 42

----------
assay: Plasma and brain concentrations after dosing; format: in vivo, rat; settings: rat, brain/plasma, oral, 1 mg/kg, Rat MK-801 Set Shift (0.3-3 mg/kg study); 1 mg/kg po; 150 min
measuredMetric: Kp at 150 min
Give bare numbers.

Task item: Assign Kp at 150 min to the following record: "c1cn(-c2cc(NC3=NC[C@@]4(CN5CCC4CC5)O3)ncn2)cn1"
Reply: 0.25

----------
test: Plasma and brain concentrations after dosing; type: in vivo, rat; conditions: rat, brain/plasma, oral, 30 mg/kg, Rat MK-801 Set Shift (3-30 mg/kg study); 30 mg/kg po; 150 min
measuredMetric: Kp at 150 min
Give bare numbers.

Task item: Given c1cn(-c2cc(NC3=NC[C@@]4(CN5CCC4CC5)O3)ncn2)cn1 [BMS-933043] , respond with its Kp at 150 min.
Reply: 0.31

----------
experiment: Plasma and brain concentrations after dosing; assay type: in vivo, rat; conditions: rat, plasma, oral, 0.3 mg/kg, Rat MK-801 Set Shift (0.3-3 mg/kg study); 0.30 mg/kg po; 150 min; read-out: Plasma Mean ± SD
measuredMetric: concentration at 150 min (nM)
Give bare numbers, in nM.

Task item: Recall and state the measured concentration at 150 min for "c1cn(-c2cc(NC3=NC[C@@]4(CN5CCC4CC5)O3)ncn2)cn1" .
Reply: 5.7

----------
Target: MAO-A (Homo sapiens)
Sequence (P21397 1-527): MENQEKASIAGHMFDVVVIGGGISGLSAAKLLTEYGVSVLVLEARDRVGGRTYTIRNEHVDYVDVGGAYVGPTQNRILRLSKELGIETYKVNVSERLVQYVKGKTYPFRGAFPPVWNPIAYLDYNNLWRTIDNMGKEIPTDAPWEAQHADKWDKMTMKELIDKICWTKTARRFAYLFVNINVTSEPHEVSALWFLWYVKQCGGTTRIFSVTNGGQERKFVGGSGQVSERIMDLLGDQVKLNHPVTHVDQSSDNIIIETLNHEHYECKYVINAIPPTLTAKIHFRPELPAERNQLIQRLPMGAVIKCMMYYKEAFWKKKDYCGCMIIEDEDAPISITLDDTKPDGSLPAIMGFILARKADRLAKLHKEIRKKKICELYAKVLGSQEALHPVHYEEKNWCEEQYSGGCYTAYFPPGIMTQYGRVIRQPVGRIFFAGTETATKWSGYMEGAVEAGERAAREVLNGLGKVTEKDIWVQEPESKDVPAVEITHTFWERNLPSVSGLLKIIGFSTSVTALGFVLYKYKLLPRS
pIC50: −log10 of the molar value.
measuredMetric: pIC50

Task item: Provide pIC50, system MAO-A (Homo sapiens), entry "c1cn(-c2cc(NC3=NC[C@@]4(CN5CCC4CC5)O3)ncn2)cn1"
Reply: < 4.52

----------
target: rat α1β1δε nAChR (Rattus norvegicus, UniProt P09660+P25108+P25109+P25110); construct: expressed in transfected cells; host or cells: HEK293 (made by Bristol-Myers Squibb); experiment: Ca2+ flux (FLIPR) agonist/antagonist assay; format: cell-based
Sequence (P25108 21-457): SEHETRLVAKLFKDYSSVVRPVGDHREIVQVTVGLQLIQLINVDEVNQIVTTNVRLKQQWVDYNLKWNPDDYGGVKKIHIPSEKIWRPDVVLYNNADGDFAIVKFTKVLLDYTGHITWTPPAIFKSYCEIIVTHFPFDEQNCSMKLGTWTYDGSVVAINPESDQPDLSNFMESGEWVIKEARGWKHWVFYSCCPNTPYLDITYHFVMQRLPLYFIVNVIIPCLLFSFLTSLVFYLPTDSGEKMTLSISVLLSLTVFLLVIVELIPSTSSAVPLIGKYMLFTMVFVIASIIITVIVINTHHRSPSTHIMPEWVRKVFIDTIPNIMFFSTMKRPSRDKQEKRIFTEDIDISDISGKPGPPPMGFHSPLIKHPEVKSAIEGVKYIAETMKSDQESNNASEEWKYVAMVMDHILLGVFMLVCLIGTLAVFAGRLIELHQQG
Sequence (P25109 24-501): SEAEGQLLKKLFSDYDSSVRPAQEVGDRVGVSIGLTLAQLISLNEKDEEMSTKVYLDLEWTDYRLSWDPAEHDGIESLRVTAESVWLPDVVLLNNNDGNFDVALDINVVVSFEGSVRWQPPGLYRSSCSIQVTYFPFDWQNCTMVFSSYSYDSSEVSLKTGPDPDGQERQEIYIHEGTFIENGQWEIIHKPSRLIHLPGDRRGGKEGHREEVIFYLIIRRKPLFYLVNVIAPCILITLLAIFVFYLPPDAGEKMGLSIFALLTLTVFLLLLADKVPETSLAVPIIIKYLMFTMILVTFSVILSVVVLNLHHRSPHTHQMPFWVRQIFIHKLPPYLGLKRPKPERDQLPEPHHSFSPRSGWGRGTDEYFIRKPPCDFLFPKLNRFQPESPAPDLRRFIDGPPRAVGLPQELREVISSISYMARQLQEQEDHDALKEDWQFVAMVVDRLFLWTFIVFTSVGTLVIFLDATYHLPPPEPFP
Sequence (P25110 22-517): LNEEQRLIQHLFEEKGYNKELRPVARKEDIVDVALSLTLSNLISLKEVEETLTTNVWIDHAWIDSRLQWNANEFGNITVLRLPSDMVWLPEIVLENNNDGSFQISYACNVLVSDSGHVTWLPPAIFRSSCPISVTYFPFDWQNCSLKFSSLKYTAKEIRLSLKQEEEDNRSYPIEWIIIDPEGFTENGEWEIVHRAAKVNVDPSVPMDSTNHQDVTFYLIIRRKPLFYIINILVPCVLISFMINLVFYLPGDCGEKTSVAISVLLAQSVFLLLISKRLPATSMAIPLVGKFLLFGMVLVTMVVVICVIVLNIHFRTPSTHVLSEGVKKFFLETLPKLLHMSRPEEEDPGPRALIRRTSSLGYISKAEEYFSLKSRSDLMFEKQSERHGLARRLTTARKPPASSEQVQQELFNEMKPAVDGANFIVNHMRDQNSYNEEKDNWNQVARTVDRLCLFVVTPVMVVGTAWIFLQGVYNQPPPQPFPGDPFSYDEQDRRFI
Sequence (P09660 21-494): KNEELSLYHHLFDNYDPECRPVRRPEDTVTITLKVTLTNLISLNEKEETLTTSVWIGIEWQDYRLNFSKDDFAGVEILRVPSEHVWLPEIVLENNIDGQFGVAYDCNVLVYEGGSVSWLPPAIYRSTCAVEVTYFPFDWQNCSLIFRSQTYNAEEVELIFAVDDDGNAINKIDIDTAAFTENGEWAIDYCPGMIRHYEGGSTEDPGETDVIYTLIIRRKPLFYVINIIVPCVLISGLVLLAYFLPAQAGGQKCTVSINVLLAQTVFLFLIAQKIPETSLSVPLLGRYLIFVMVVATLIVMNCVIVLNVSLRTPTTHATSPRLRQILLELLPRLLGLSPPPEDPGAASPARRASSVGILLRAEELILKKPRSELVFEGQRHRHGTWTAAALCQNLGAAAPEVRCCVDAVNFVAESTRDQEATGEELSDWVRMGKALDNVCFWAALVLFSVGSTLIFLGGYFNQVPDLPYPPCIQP
pEC50: −log10 of the molar value.
measuredMetric: pEC50

O=C(N[C@@H]1C2CCN(CC2)[C@H]1Cc1cccnc1)c1cc2ccccc2o1 : < 4.00

Moving on to the next compound.
Task item: Consider the compound Clc1ccc(C2CC3CCC2N3)cn1 (racemic) [Epibatidine, (±)epibatidine] and give its recorded pEC50.
Reply: < 6.00
